Recorded inhibition by entry
- MEASURED_TARGET: Muscarinic acetylcholine receptor M2 (Homo sapiens) (UniProt P08172)
- Sequence (whole entry): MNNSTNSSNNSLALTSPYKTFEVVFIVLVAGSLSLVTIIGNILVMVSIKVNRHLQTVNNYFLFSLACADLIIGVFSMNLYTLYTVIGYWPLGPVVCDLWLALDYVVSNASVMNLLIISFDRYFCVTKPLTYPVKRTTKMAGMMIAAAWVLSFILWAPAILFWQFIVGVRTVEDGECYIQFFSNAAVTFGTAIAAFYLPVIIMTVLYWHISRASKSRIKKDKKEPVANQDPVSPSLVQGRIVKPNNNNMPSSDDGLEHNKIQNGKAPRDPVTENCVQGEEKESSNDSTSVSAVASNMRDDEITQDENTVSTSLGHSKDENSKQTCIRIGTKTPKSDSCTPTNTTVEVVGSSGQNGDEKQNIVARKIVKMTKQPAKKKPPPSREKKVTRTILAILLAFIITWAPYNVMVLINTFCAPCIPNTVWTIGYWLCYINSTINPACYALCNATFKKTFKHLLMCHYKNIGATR
- ASSAY_PROTOCOL: Displacement of [3H]AF-DX384 from recombinant human muscarinic M2 receptor expressed in CHO cells at 10 uM after 60 mins by scintillation counting method relative to control
- Assay type: cell-based
Report as a plain number; the unit % is understood.

COMPOUND	RESULT_UNIT	MEASURED_VALUE
COc1cc(CN(C[C@H]2CC[C@H](C(=O)O)CC2)C(C)c2ccc3c(c2)CCO3)ccc1OCCN1C(=O)CCC1=O (some centres not stated)	%	54
CCc1cc(CN(C[C@H]2CC[C@H](C(=O)O)CC2)[C@H]2CCc3cc(Cl)ccc32)ccc1OCCN1C(=O)CCC1=O	%	37
Cc1cc(CN(C[C@H]2CC[C@H](C(=O)O)CC2)[C@@H](C)c2ccc(Cl)cc2)ccc1OCCN1C(=O)CCC1=O	%	97
CC(c1ccc2c(c1)CCO2)N(Cc1ccc(OCCN2C(=O)CCC2=O)c(Cl)c1)C[C@H]1CC[C@H](C(=O)O)CC1 (some centres not stated)	%	98

Input line: Given Cc1cc(CN(C[C@H]2CC[C@H](C(=O)O)CC2)[C@H]2CCc3cc(Cl)ccc32)ccc1OCCN1C(=O)CCC1=O , state its recorded inhibition.
Output line: 92

Input line: Next compound up: COc1cc(CN(C[C@H]2CC[C@H](C(=O)O)CC2)C(C)c2ccc3c(c2)CCO3)ccc1OCCN1C(=O)CSC1=O (some centres not stated)
Output line: 72

Input line: Next compound up: COc1cc(CN(C[C@H]2CC[C@H](C(=O)O)CC2)[C@H]2CCc3c2ccc(Cl)c3Cl)ccc1OCCN1C(=O)CCC1=O
Output line: 0
